Biological target: EHMT2 (Homo sapiens)
Construct: host or cells: MDA-MB-231
Sequence (Q96KQ7 1-1210): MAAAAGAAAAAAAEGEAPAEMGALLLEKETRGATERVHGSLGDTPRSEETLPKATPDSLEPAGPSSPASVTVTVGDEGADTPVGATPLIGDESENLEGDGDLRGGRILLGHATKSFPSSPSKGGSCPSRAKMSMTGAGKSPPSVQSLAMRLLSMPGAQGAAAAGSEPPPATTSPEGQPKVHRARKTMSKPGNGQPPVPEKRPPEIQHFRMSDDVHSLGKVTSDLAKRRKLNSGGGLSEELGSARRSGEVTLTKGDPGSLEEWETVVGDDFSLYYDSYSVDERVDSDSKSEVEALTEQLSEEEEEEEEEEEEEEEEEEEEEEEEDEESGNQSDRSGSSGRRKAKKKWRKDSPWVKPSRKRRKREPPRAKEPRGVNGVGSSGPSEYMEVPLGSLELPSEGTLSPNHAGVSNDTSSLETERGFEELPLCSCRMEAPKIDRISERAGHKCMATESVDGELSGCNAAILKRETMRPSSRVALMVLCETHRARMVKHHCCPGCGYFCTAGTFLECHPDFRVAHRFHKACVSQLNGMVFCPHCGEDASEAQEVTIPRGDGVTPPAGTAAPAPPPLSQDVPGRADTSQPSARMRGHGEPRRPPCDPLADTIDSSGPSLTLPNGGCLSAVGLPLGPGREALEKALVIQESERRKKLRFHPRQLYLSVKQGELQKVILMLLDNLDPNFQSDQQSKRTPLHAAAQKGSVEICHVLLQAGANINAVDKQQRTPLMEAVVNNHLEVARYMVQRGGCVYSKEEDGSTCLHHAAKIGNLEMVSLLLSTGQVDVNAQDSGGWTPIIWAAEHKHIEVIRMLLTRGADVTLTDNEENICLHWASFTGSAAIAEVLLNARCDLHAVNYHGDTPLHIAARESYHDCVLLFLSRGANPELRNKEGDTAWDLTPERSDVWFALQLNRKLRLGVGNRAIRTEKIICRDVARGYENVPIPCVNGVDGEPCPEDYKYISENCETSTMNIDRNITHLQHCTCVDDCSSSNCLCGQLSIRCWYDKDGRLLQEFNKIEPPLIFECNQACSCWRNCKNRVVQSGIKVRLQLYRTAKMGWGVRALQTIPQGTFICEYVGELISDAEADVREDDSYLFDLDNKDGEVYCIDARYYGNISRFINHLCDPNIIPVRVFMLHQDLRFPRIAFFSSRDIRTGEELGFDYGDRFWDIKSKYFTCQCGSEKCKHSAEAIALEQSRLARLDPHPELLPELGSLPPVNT
Test: MDA-MB-231 H3K9me2 in-cell Western assay (EHMT2 ICW)
Format: cell-based
Details: Table VI; read-out: EHMT2 ICW IC50
Recorded measurements of IC50, one per entry
propertyLabel: IC50

[[record]]
compound = "COc1cc(N(C)C2CCNCC2)ncc1OCC1CCN(C)C1 (centres unmarked) [Compound 635]"
measurementtarget = "EHMT2 (Homo sapiens)"
val = "> 10 µM"

[[record]]
compound = "COc1cc2c(C3CCN([C@@H]4CCOC4)CC3)cc(C)nc2cc1OCCCN1CCCC1"
measurementtarget = "EHMT2 (Homo sapiens)"
val = "0.1 to 1 µM"

[[record]]
compound = "CNc1cc(C)nc(Nc2cc(OCCCN3CCCC3)c3nc(C)cn3c2)n1"
measurementtarget = "EHMT2 (Homo sapiens)"
val = "1 to 10 µM"

[[record]]
compound = "COc1cc2c(C)nc(N3CCOCC3)nc2cc1OCCCN1CCCC1"
measurementtarget = "EHMT2 (Homo sapiens)"
val = "> 10 µM"

[[record]]
compound = "CNc1cc(C)nc(Nc2ccc(OC)c(C#CC3CCNC3)c2)n1 (centres unmarked)"
measurementtarget = "EHMT2 (Homo sapiens)"
val = "0.1 to 1 µM"


Data provenance is patent US20210198277A1.
